Molecular target: GRK2 (Homo sapiens)
Sequence (P25098 whole entry): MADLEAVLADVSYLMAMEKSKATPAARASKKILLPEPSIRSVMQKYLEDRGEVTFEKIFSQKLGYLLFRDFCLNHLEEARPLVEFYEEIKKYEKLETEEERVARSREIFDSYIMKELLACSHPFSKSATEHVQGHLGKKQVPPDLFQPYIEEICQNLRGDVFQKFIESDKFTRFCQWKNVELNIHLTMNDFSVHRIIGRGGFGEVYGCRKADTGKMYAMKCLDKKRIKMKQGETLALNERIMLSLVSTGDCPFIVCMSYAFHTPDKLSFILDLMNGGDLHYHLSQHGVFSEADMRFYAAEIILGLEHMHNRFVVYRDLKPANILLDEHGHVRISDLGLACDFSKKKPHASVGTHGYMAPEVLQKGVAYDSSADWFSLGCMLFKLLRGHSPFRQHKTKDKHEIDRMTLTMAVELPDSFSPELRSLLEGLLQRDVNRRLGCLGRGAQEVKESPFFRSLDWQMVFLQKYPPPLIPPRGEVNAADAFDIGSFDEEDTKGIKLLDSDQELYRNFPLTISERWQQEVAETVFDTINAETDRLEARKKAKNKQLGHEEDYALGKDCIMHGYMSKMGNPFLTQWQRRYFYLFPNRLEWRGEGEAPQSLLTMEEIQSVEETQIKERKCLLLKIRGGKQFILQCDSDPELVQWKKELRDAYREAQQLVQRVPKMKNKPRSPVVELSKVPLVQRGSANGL
Assay: GRK2 Degradation Assay and Western Blot in PAXF1657 cells
Assay type: cell-based
Parameters: endogenous in cells; host or cells: PAXF1657
Conditions: 1 uM, PAXF1657 EV, 24 hrs; read-out: % GRK2 degradation at 1 uM in PAXF1657 EV (24 hrs)
MEASURED QUANTITY: inhibition at 1 µM
Form field: result (number plus unit)

{"columns": ["MOLECULE", "MEASURED QUANTITY", "RECORDED VALUE"],
 "data": [
  ["Cc1ncsc1-c1ccc(CNC(=O)[C@@H]2C[C@@H](O)CN2C(=O)[C@@H](NC(=O)CCCCc2cn(CCCCCCCOc3cccc(CNC(=O)c4cccc(NCc5nnc(-c6ccncn6)n5C)c4)c3)nn2)C(C)(C)C)cc1", "inhibition at 1 µM", "28%"],
  ["Cn1c(CNc2cccc(C(=O)NCc3cccc(OCCOCCOCCOCCC(=O)Nc4cccc5c4CN(C4CCC(=O)NC4=O)C5=O)c3)c2)nnc1-c1ccncn1 (stereo not drawn)", "inhibition at 1 µM", "19%"],
  ["Cc1ncsc1-c1ccc(CNC(=O)[C@@H]2C[C@@H](O)CN2C(=O)[C@@H](NC(=O)CCCCCOCCOCCOCCCCCCOc2cccc([C@H](C)NC(=O)c3cccc(NCc4nnc(-c5ccncn5)n4C)c3)c2)C(C)(C)C)cc1", "inhibition at 1 µM", "-21%"],
  ["Cc1ncsc1-c1ccc(CNC(=O)[C@@H]2C[C@@H](O)CN2C(=O)[C@@H](NC(=O)CCCCCOCCOCCOCCCCCCOc2cccc(C(C)NC(=O)c3cccc(NCc4nnc(-c5ccncn5)n4C)c3)c2)C(C)(C)C)cc1 (stereo partly drawn)", "inhibition at 1 µM", "51%"],
  ["Cn1c(CNc2cccc(C(=O)NCc3cccc(OCCCCCC(=O)NCCOCCOCCOCCC(=O)Nc4cccc5c4CN(C4CCC(=O)NC4=O)C5=O)c3)c2)nnc1-c1ccncn1 (stereo not drawn)", "inhibition at 1 µM", "-6%"]
]}

Record lookup: for GRK2 (Homo sapiens), what inhibition at 1 µM belongs to Cn1c(CNc2cccc(C(=O)NCc3cccc(OCCCCCn4cc(CCCC(=O)Nc5cccc6c5CN(C5CCC(=O)NC5=O)C6=O)nn4)c3)c2)nnc1-c1ccncn1 (stereo not drawn) ? 18%

Can you handle "Cc1ncsc1-c1ccc(CNC(=O)[C@@H]2C[C@@H](O)CN2C(=O)[C@@H](NC(=O)COCCCOCCCCCOc2cccc(CNC(=O)c3cccc(NCc4nnc(-c5ccncn5)n4C)c3)c2)C(C)(C)C)cc1" next? 34%

Can you handle "Cc1ncsc1-c1ccc(CNC(=O)[C@@H]2C[C@@H](O)CN2C(=O)[C@@H](NC(=O)CCCCCOCCOCCOCCCCCCOc2cccc([C@@H](C)NC(=O)c3cccc(NCc4nnc(-c5ccncn5)n4C)c3)c2)C(C)(C)C)cc1" next? 54%

Can you handle "Cc1ncsc1-c1ccc([C@H](C)NC(=O)[C@@H]2C[C@@H](O)CN2C(=O)[C@@H](NC(=O)CCCCCOCCOCCOCCCCCCOc2cccc(CNC(=O)c3cccc(NCc4nnc(-c5ccncn5)n4C)c3)c2)C(C)(C)C)cc1" next? 23%

----------
# inhibition at 0.3 µM listing for each entry below
Target: GRK2 (Homo sapiens)
Assay: GRK2 Degradation Assay and Western Blot in PAXF1657 cells
Type: cell-based
Design: endogenous in cells; host or cells: PAXF1657
Details: Conc 0.3 uM; read-out: Degradation Assay - 3 point: Degradation (%)
Counter-ions that a name gives are not always drawn.
Write the value in % as a bare number.

// solved cases for inhibition at 0.3 µM follow
{"columns": ["COMPOUND", "UNIT NAME", "inhibition at 0.3 µM"],
 "data": [
  ["Cn1c(CNc2cccc(C(=O)N[C@H]3CCOc4ccc(OCCCCCCOCCOCCOCCCCCC(=O)Nc5cccc6c5CN(C5CCC(=O)NC5=O)C6=O)cc43)c2)nnc1-c1ccncn1 (stereo partly shown) [Compound D156]", "%", -8.15],
  ["C[C@@H](NC(=O)c1cccc(NCc2nnc(-c3ccncn3)n2C)c1)c1cccc(OCCCCCCn2cc(CCCC(=O)Nc3cccc4c3CN(C3CCC(=O)NC3=O)C4=O)nn2)c1 (stereo partly shown) [Compound D165]", "%", -1.61]
]}

I have this compound here, Cn1c(CNc2cccc(C(=O)N[C@@H]3CCOc4ccc(OCCCCCOCCCOCC(=O)Nc5cccc6c5CN(C5CCC(=O)NC5=O)C6=O)cc43)c2)nnc1-c1ccncn1 (stereo partly shown) [Compound D192] , and I need its recorded inhibition at 0.3 µM. 13.5

Can you handle C[C@@H](NC(=O)c1cccc(NCc2nnc(-c3ccncn3)n2C)c1)c1cccc(OCCCCCCOCCOCC(=O)N2CCN(c3ccc4c(c3)CN(C3CCC(=O)NC3=O)C4=O)CC2)c1 (stereo partly shown) [Compound D138, hydrochloride] next? 85
